Catalogue of apparent KD of MS2 coat protein readings, one per entry.
- Test system: MS2 coat protein
- EXPERIMENT_SUMMARY: apparent KD of MS2 coat protein; designed switch direction (-1 OFF switch, 1 ON switch): -1; higher = weaker reporter binding
- ASSAY_CONTEXT: input ligand: none
Give the number; nM is assumed, so skip it.

Examples with answers:
>>> observed_result("GUUUCACAUGAGGAUCACCCAUGUGAGGAUAUAGAUUUGUUAGUCGUAAUUGAUAGAUUUAGAAGGCGCGUGAU [JR_Exc1_Sub002] (Eterna round: R97, puzzle: Exclusion 1)")
25.2
>>> observed_result("AGUACUAACACGUCGGUGUUAGUACAAUAAGCUUGUGAAACAUGAGGAUCACCCAUGUCCUCAUAAGCUCGUCUUAU [salish99_TOv2_r3_080] (Eterna round: R96, puzzle: Sensor v3, turn-off variant 2)")
17.8
>>> observed_result("GUCAGCUCGUCAGGAUAUACAUCACUGCUUCGGCAGUGUAUUAAGAUCACAUGAGGAUCACCCAUGUAGAAGGGACGAGCUGAU [ENG2/2-B2] (Eterna round: R96, puzzle: Exclusion NG 2)")
25.8
>>> observed_result("AGCCCUGCAGGAUAUGCCCGGGAUAACAUGAGGAUCACCCAUGUGACCGGUUGUUAGACUGCAGAAGGGCAUGGGA [salish99_ex5_r4_302] (Eterna round: R97, puzzle: Exclusion 5)")
12.2

(Q) Write apparent KD of MS2 coat protein of AAACCCUGAGGAUAUAGAUAACAACAAAGCCUCACGUGCCAACAUGAGGAUCACCCAUGUAGAAGGCAGGCCAA [Mod R3 Insanara 4 - Jieux - Exclusion 2] (Eterna round: R97, puzzle: Exclusion 2) ; system used: MS2 coat protein
(A) 17.2
